Where do these numbers come from? They come from ChEMBL document CHEMBL3217712.

# experimental protocol: Biodistribution in mouse Cloudman S91 tumor bearing DBA2 mouse lungs at 10 mg/kg, ip after 24 hrs
# Type: ADME, organism-based
# Design: dose 10 mg/kg, route intraperitoneal
# condition description: lung, read-out: Drug uptake
endpoint name: concentration at 24 h (ng/g)
Numeric only. Scale: ng/g

Item under review: CCNS(=O)(=O)c1ccc(Cl)c(-c2c3nc(c(-c4c(Cl)ccc(S(=O)(=O)NCC)c4Cl)c4ccc([nH]4)c(-c4c(Cl)ccc(S(=O)(=O)NCC)c4Cl)c4nc(c(-c5c(Cl)ccc(S(=O)(=O)NCC)c5Cl)c5ccc2[nH]5)CC4)CC3)c1Cl . Reported concentration at 24 h? 850

====

# experimental protocol: Biodistribution in mouse Cloudman S91 tumor bearing DBA2 mouse liver at 10 mg/kg, ip after 6 hrs
# Format: ADME, organism-based
# Parameters: dose 10 mg/kg, route intraperitoneal
# condition description: read-out: Drug uptake
endpoint name: concentration at 6 h (ng/g)
Numeric only. Scale: ng/g

Item under review: CCNS(=O)(=O)c1ccc(Cl)c(-c2c3nc(c(-c4c(Cl)ccc(S(=O)(=O)NCC)c4Cl)c4ccc([nH]4)c(-c4c(Cl)ccc(S(=O)(=O)NCC)c4Cl)c4nc(c(-c5c(Cl)ccc(S(=O)(=O)NCC)c5Cl)c5ccc2[nH]5)CC4)CC3)c1Cl . Reported concentration at 6 h? 4800

====

# experimental protocol: Biodistribution in mouse Cloudman S91 tumor bearing DBA2 mouse blood at 10 mg/kg, ip after 72 hrs
# Type: ADME, organism-based
# Set-up: dose 10 mg/kg, route intraperitoneal
# condition description: read-out: Drug uptake
endpoint name: concentration at 72 h (ng/g)
Numeric only. Scale: ng/g

Item under review: CCNS(=O)(=O)c1ccc(Cl)c(-c2c3nc(c(-c4c(Cl)ccc(S(=O)(=O)NCC)c4Cl)c4ccc([nH]4)c(-c4c(Cl)ccc(S(=O)(=O)NCC)c4Cl)c4nc(c(-c5c(Cl)ccc(S(=O)(=O)NCC)c5Cl)c5ccc2[nH]5)CC4)CC3)c1Cl . Reported concentration at 72 h? 50

====

# experimental protocol: Biodistribution in mouse Cloudman S91 tumor bearing DBA2 mouse heart at 10 mg/kg, ip after 72 hrs
# Assay type: ADME, organism-based
# Set-up: dose 10 mg/kg, route intraperitoneal
# condition description: read-out: Drug uptake
endpoint name: concentration at 72 h (ng/g)
Numeric only. Scale: ng/g

Item under review: CCNS(=O)(=O)c1ccc(Cl)c(-c2c3nc(c(-c4c(Cl)ccc(S(=O)(=O)NCC)c4Cl)c4ccc([nH]4)c(-c4c(Cl)ccc(S(=O)(=O)NCC)c4Cl)c4nc(c(-c5c(Cl)ccc(S(=O)(=O)NCC)c5Cl)c5ccc2[nH]5)CC4)CC3)c1Cl . Reported concentration at 72 h? 200

====

# experimental protocol: Biodistribution in mouse Cloudman S91 tumor bearing DBA2 mouse liver at 10 mg/kg, ip after 24 hrs
# Type: ADME, organism-based
# Set-up: dose 10 mg/kg, route intraperitoneal
# condition description: read-out: Drug uptake
endpoint name: concentration at 24 h (ng/g)
Numeric only. Scale: ng/g

Item under review: CCNS(=O)(=O)c1ccc(Cl)c(-c2c3nc(c(-c4c(Cl)ccc(S(=O)(=O)NCC)c4Cl)c4ccc([nH]4)c(-c4c(Cl)ccc(S(=O)(=O)NCC)c4Cl)c4nc(c(-c5c(Cl)ccc(S(=O)(=O)NCC)c5Cl)c5ccc2[nH]5)CC4)CC3)c1Cl . Reported concentration at 24 h? 2000
